- Experiment summary: Compound was evaluated for plasma clearance.
- Format: ADME, organism-based, Canis lupus familiaris
- Condition details: dog
In this section we review reported clearance values for a set of molecules.
Expressed in mL/min/kg, but write only the number.

N/C(S)=N/N=C/c1ncccc1NC(=O)OCc1ccc(OP(=O)([O-])[O-])cc1.[Na+].[Na+] :: 43.8

Let us move to another entry and its clearance.
For the molecule NC(=S)N/N=C/c1ncccc1N [TRIAPINE] , give its measured clearance value.
40.6
